Each entry below carries its recorded pIC50.
molecular target: Bcat-Halo (UniProt P35222); experiment: NanoBRET Abs IC50, Bcat-Halo/TCF4-Luc in HEK293 cells
Sequence (P35222 whole entry): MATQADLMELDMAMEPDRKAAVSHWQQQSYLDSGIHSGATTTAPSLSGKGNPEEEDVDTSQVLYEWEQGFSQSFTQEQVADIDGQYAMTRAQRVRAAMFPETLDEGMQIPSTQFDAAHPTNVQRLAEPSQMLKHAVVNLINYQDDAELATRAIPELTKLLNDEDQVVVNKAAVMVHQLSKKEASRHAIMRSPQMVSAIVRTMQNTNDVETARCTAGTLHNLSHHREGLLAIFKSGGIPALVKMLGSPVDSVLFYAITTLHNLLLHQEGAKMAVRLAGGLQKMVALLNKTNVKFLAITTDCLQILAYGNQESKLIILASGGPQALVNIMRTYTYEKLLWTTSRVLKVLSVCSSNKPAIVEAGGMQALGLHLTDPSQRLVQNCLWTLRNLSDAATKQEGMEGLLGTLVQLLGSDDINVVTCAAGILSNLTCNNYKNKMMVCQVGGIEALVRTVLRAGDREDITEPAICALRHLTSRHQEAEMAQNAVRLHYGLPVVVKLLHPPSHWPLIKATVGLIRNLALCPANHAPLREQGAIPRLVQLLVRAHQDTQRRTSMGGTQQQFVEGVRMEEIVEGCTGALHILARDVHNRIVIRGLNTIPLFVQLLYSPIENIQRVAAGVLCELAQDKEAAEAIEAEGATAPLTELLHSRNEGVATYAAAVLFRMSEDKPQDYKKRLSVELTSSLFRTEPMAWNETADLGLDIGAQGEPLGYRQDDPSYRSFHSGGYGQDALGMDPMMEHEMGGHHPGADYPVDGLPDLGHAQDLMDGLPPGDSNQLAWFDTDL
Starred links: 1 amine or outer side, 2 acyl side, 3 side chain; linkers in the order of their positions; H or OH if unused. Positions of bridges follow the written chain, without caps; N, C: chain ends. Non-standard residues stand in square brackets, D forms with d. Primed or numbered codes have the meaning given here. PyrS2″ = (S)-3-amino-1-((pent-4-en-1-yloxy)carbonyl)pyrrolidine-3-carboxylic acid (stapling residue), C=CCCCOC(=O)N1CC[C@@](N[*:1])(C(=O)[*:2])C1; B5(18) = 2,2-bis(4-pentenyl)glycine (2-amino-2-(pent-4-en-1-yl)hept-6-enoic acid), stitching residue, C=CCCCC(CCCC=C)(N[*:1])C(=O)[*:2]; B5(5) = 2,2-bis(4-pentenyl)glycine, 2-amino-2-(pent-4-en-1-yl)hept-6-enoic acid (stitching residue), C=CCCCC(CCCC=C)(N[*:1])C(=O)[*:2]; TfeGA = (S)-2-amino-3-((carboxymethyl)(2,2,2-trifluoroethyl)amino)propanoic acid, O=C([C@H](CN(CC(=O)[*:3])CC(F)(F)F)N[*:1])[*:2]; PyrS2 = (S)-3-amino-1-((pent-4-en-1-yloxy)carbonyl)pyrrolidine-3-carboxylic acid, C=CCCCOC(=O)N1CC[C@@](N[*:1])(C(=O)[*:2])C1; 4F3COOHF = (S)-5-(2-amino-2-carboxyethyl)-2-fluorobenzoic acid, O=C([C@H](Cc1ccc(F)c(C(=O)[*:3])c1)N[*:1])[*:2]; Phe(2-Cl) = N[C@@H](Cc1ccccc1Cl)C(=O)O; Bta = N[C@@H](Cc1csc2ccccc12)C(=O)O; αAllylPro = C=CC[C@@]1(C(=O)O)CCCN1; tBuAla = CC(C)(C)C[C@H](N)C(=O)O; 3Thi = N[C@@H](Cc1ccsc1)C(=O)O
Just the number, please; pIC50 means minus log10 of the concentration in mol/L.

Consider the following illustrative entries.
{"BINDER": "Ac-[αAllylPro]D[tBuAla][B5(5)]D[TfeGA]IAFN[PyrS2″][Phe(2-Cl)][Bta]Q-NH2 (staple 1-4, 4-11) [I-1010]", "pIC50": 4.88}
{"BINDER": "Ac-[αAllylPro]D[tBuAla][B5(18)]D[TfeGA]ASFN[PyrS2″][Phe(2-Cl)][Bta]Q-NH2 (staple 1-4, 4-11) [I-1004]", "pIC50": 4.97}
{"BINDER": "Ac-[αAllylPro]D[tBuAla][B5(18)]D[TfeGA]ALFN[PyrS2″][Phe(2-Cl)][Bta]Q-NH2 (staple 1-4, 4-11) [I-1002]", "pIC50": 4.53}
{"BINDER": "Ac-[αAllylPro]D[tBuAla][B5(18)]DDAAFS[PyrS2″][Phe(2-Cl)][Bta]S-NH2 (staple 1-4, 4-11) [I-1019]", "pIC50": 5.02}

Turning now to a further binder:
Query: pIC50; subject: Ac-[αAllylPro]D[tBuAla][B5(5)]D[4F3COOHF]QAFL[PyrS2][3Thi][Bta]A-NH2 (staple 1-4, 4-11) [I-2206]
5.15
